Settings: 303.15 K; 4000 kPa; Liquid
outcome.measure: mass density (kg/m3)

molecule="CCCCCCCCCCCCCC[P+](CCCCCC)(CCCCCC)CCCCCC.N#C[N-]C#N [tetradecyl(trihexyl)phosphonium dicyanamide]" unit_name=kg/m3 reported=897.9
molecule="CCCCCCCCCCCCCC[P+](CCCCCC)(CCCCCC)CCCCCC.[Br-] [tetradecyltrihexylphosphonium bromide]" unit_name=kg/m3 reported=952.6
molecule="CCCCCCCCCCCCCC[P+](CCCCCC)(CCCCCC)CCCCCC.CS(=O)(=O)[O-] [trihexyltetradecylphosphonium methanesulfonate]" unit_name=kg/m3 reported=927.9
molecule=CCCCCCCCCCCCCC[P+](CCCCCC)(CCCCCC)CCCCCC.O=S(=O)([N-]S(=O)(=O)C(F)(F)F)C(F)(F)F unit_name=kg/m3 reported=1065.2
molecule="CCCCCCCCCCCCCC[P+](CCCCCC)(CCCCCC)CCCCCC.[Cl-] [trihexyl(tetradecyl)phosphonium chloride]" unit_name=kg/m3 reported=888.5

====

A collection of compounds and their measured mass density
Conditions: 323.15 K; 15000 kPa; Liquid
outcome.measure: mass density (kg/m3)

compound="CCCCCCCCCCCCCC[P+](CCCCCC)(CCCCCC)CCCCCC.[Br-] [tetradecyltrihexylphosphonium bromide]" reported=946.8
compound=CCCCCCCCCCCCCC[P+](CCCCCC)(CCCCCC)CCCCCC.O=S(=O)([N-]S(=O)(=O)C(F)(F)F)C(F)(F)F reported=1057.9
compound="CCCCCCCCCCCCCC[P+](CCCCCC)(CCCCCC)CCCCCC.[Cl-] [trihexyl(tetradecyl)phosphonium chloride]" reported=882.8
compound="CCCCCCCCCCCCCC[P+](CCCCCC)(CCCCCC)CCCCCC.N#C[N-]C#N [tetradecyl(trihexyl)phosphonium dicyanamide]" reported=892
compound="CCCCCCCCCCCCCC[P+](CCCCCC)(CCCCCC)CCCCCC.CS(=O)(=O)[O-] [trihexyltetradecylphosphonium methanesulfonate]" reported=922.3

====

Conditions: 323.15 K; 35000 kPa; Liquid
Reported mass density by item:
outcome.measure: mass density (kg/m3)

molecule="CCCCCCCCCCCCCC[P+](CCCCCC)(CCCCCC)CCCCCC.[Br-] [tetradecyltrihexylphosphonium bromide]" outcome_measure="mass density" unit_name=kg/m3 reported=957.7
molecule="CCCCCCCCCCCCCC[P+](CCCCCC)(CCCCCC)CCCCCC.[Cl-] [trihexyl(tetradecyl)phosphonium chloride]" outcome_measure="mass density" unit_name=kg/m3 reported=892.6
molecule=CCCCCCCCCCCCCC[P+](CCCCCC)(CCCCCC)CCCCCC.O=S(=O)([N-]S(=O)(=O)C(F)(F)F)C(F)(F)F outcome_measure="mass density" unit_name=kg/m3 reported=1069.8
molecule="CCCCCCCCCCCCCC[P+](CCCCCC)(CCCCCC)CCCCCC.N#C[N-]C#N [tetradecyl(trihexyl)phosphonium dicyanamide]" outcome_measure="mass density" unit_name=kg/m3 reported=901.4
molecule="CCCCCCCCCCCCCC[P+](CCCCCC)(CCCCCC)CCCCCC.CS(=O)(=O)[O-] [trihexyltetradecylphosphonium methanesulfonate]" outcome_measure="mass density" unit_name=kg/m3 reported=933.1

====

# maps each entry to its mass density
Conditions: 313.15 K; 100 kPa; Liquid
outcome.measure: mass density (kg/m3)

compound="CCCCCCCCCCCCCC[P+](CCCCCC)(CCCCCC)CCCCCC.N#C[N-]C#N [tetradecyl(trihexyl)phosphonium dicyanamide]" reported=890.2
compound="CCCCCCCCCCCCCC[P+](CCCCCC)(CCCCCC)CCCCCC.CS(=O)(=O)[O-] [trihexyltetradecylphosphonium methanesulfonate]" reported=919.6
compound="CCCCCCCCCCCCCC[P+](CCCCCC)(CCCCCC)CCCCCC.[Br-] [tetradecyltrihexylphosphonium bromide]" reported=944.1
compound=CCCCCCCCCCCCCC[P+](CCCCCC)(CCCCCC)CCCCCC.O=S(=O)([N-]S(=O)(=O)C(F)(F)F)C(F)(F)F reported=1055.4
compound="CCCCCCCCCCCCCC[P+](CCCCCC)(CCCCCC)CCCCCC.[Cl-] [trihexyl(tetradecyl)phosphonium chloride]" reported=880.6
